All values here come from PubChem BioAssay.

- Test system: wheat germ agglutinin (Triticum aestivum), Alexa647-labelled
- method_description: Alexa647-WGA lectin binding to printed small molecules – biochemical, small-molecule microarray, 635/667 nm fluorescence, artefact control for SMM control-protein annotation, profiling panel (AID 1140);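 note: score merges 667 nm feature emission with signal to noise over triplicate slides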
- assay_setup: WGA-A647 binding, 635 nm fluorescence, higher = more signal
quantity_name: composite z-score
Answers are plain numbers.

Below: 6 compounds and their reported composite z-score.
[[record]]
compound = "C=C(COC)C(=O)CC[C@H](OC(=O)c1ccccc1-c1ccccc1C(=O)O)c1ccc(OCCO)cc1"
test_result = 0.564

[[record]]
compound = "C[N+](C)(C)CCCCCCNC(=O)[C@@H]1C[C@@H]2C(=O)NCC(=O)N2[C@@H]1c1ccc(O)cc1"
test_result = 0.01

[[record]]
compound = "OCCCC1=CC(c2cccs2)N(Cc2cccc(OC(F)(F)F)c2)CC1 (configuration not stated)"
test_result = 0.771

[[record]]
compound = "COC(=O)C(CC#Cc1ccc2c(c1)[C@]1(C(=O)N2)[C@H](c2ccc(O)cc2)N2[C@H](c3ccccc3)[C@H](c3ccccc3)OC(=O)[C@H]2[C@@H]1C(N)=O)C(=O)OC"
test_result = -2.35

[[record]]
compound = "COC(=O)C(CC#Cc1ccc2c(c1)[C@]1(C(=O)N2)[C@H](c2ccccc2OCCO)N2[C@H](c3ccccc3)[C@H](c3ccccc3)OC(=O)[C@H]2[C@@H]1C(=O)Nc1nc2ccccc2s1)C(=O)OC"
test_result = 1.29

[[record]]
compound = "COc1cc(C(O)C2C=CC3C(=O)NC(=O)C3N2Nc2ccc(Cl)cc2Cl)cc(OC)c1OC (configuration not stated)"
test_result = 0.871


Now consider a different compound.
// composite z-score lookup, compound = C=C(/C(=C/C[C@@H](OC(C)=O)c1ccccc1OCCO)c1cnc2ccccc2c1)C(C)C , result: 1.05

* * *

- method_description: ATP-based viability of Huh7 replicon cells – cell-based, CellTiter-Glo luminescence, basal, 48 h, cytotoxicity control for HCV replication inhibitor project, primary screen (AID 1143);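 note: Huh7 hepatoma cells carrying a hepatitis C replication reporter with no stimulus; test concentration not given here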
- assay_setup: higher = more signal, called active from +8 up or from −8 down
Give measured z-score for each item. Keep answers brief.
Numbers only.

Would you please look over these solved cases?
[[record]]
compound = "O=C1O[C@H](c2ccccc2)[C@H](c2ccccc2)N2[C@H]1[C@@H](C(=O)N1CCCCCCC1)[C@]1(C(=O)Nc3ccc(C#CCCO)cc31)[C@H]2c1ccc(OCCO)cc1"
quantity_name = "z-score"
test_result = -2.18

[[record]]
compound = "COCCOC(=O)N1C(=O)[C@@]2(c3cc(C#Cc4ccc(OC)cc4)ccc31)[C@H](c1ccc(OCCO)cc1)N1[C@H](c3ccccc3)[C@H](c3ccccc3)OC(=O)[C@H]1[C@@H]2C(N)=O"
quantity_name = "z-score"
test_result = -2.73


Items follow; give z-score for each.
1. O=C1NC(=O)C2C1C=CC(C(O)CCc1ccccc1)N2Nc1ccccn1 (configuration not stated)
2. CCCC=C(CCC)[C@@H](NS(=O)(=O)c1ccccc1)c1ccc(C(F)(F)F)cc1
3. CO[C@H]1O[C@H](CO)[C@@H](OC(=O)Nc2ccc(C(F)(F)F)cc2)[C@H](OC(=O)Nc2ccccc2)[C@H]1OC(=O)Nc1ccccc1
4. COC(=O)[C@H]1N=C(c2ccc(OCCCO)cc2)O[C@H]1c1ccccc1CN=[N+]=[N-]
5. COCC(=C=CC[C@@H](O)c1ccccc1OCCO)C[C@@H](O)c1ccccn1

Data returned:
-0.466
-1.21
-5.9
-1.45
-0.202
